- Measurement description: Cytotoxicity in African green monkey Vero cells assessed as reduction in cell viability by MTT assay
- Assay type: cell-based
- Setup conditions: chlorocebus sabaeus, Vero cells; read-out: TC50 (the source's name)
Quantity measured: CC50 (µM)
Enter your answer as a number in µM; do not include the unit.

Look over these answered cases.
# Compound, Measure unit, CC50
records = [
    ("CNC(=O)CC[C@H](Nc1ccn([C@@H]2O[C@@](CO)(N=[N+]=[N-])[C@@H](O)[C@@H]2F)c(=O)n1)C(=O)NC", "µM", 126),
    ("CCNC(=O)CC[C@H](Nc1ccn([C@@H]2O[C@@](CO)(N=[N+]=[N-])[C@@H](O)[C@@H]2F)c(=O)n1)C(=O)NCC", "µM", 150),
    ("COC(=O)[C@H](CCC(=O)O)Nc1ccn([C@@H]2O[C@@](CO)(N=[N+]=[N-])[C@@H](O)[C@@H]2F)c(=O)n1", "µM", 9.3),
    ("COC(=O)CC[C@H](Nc1ccn([C@@H]2O[C@@](CO)(N=[N+]=[N-])[C@@H](O)[C@@H]2F)c(=O)n1)C(=O)O", "µM", 21.5),
    ("COC(=O)CC[C@H](Nc1ccn([C@@H]2O[C@@](CO)(N=[N+]=[N-])[C@@H](O)[C@@H]2F)c(=O)n1)C(=O)OC", "µM", 257),
    ("[N-]=[N+]=N[C@]1(CO)O[C@@H](n2ccc(N[C@@H](CCC(N)=O)C(N)=O)nc2=O)[C@@H](F)[C@@H]1O", "µM", 160),
]

Now look at this entry.
Recorded result, NC(=O)c1ncn([C@@H]2O[C@H](CO)[C@@H](O)[C@H]2O)n1 [RIBAVIRIN] , CC50: 31.2

###

Consider the following molecules and their measured CC50 readings.
- Test system: Vero
- Measurement description: Cytotoxicity in African green monkey Vero cells assessed as reduction in cell viability by MTT assay
- Format: cell-based
- Setup conditions: chlorocebus sabaeus, vero; read-out: TC50 (the source's name)
Report only the number, with the unit µM understood.

# Compound structure, CC50 (µM)
data = [
    ("[K+].[K+].[N-]=[N+]=N[C@]1(CO)O[C@@H](n2ccc(N[C@@H](CCC(=O)[O-])C(=O)[O-])nc2=O)[C@@H](F)[C@@H]1O", 13.5),
]

Kindly consider the entry below.
Item: `[N-]=[N+]=N[C@]1(CO)O[C@@H](n2ccc(N[C@@H](CCC(=O)O)C(=O)O)nc2=O)[C@@H](F)[C@@H]1O` | CC50: 30.7

All values here come from ChEMBL document CHEMBL4342433.
